Field: viability, T/C. Provide a value for each of the compounds that follow.
- System: 996289-038-R-J1-PDC spheroid viability;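 also: luminescence used as a proxy for viable cell amount; spheroids exposed to compounds for seven days before viability read; percent viability relative to DMSO vehicle control as 100%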
- test_name: Anticancer human tumor 996289-038-R-J1-PDC patient-derived colon adenocarcinoma cell line growth inhibition [PI3K]
- protocol_conditions: second compound 0.01 µM; first compound 0.316 µM; stronger effect = lower value; spheroids with HUVEC and MSC
Give your result in % as a bare value.

For the compound Cn1nccc1Nc1nccc(-c2ccn(C(CO)c3ccc(Cl)c(F)c3)c(=O)c2)n1 (stereo not drawn) + COc1c(OCCCN2CCOCC2)ccc2c3n(c(=NC(=O)c4cnc(N)nc4)nc12)CCN3 , what viability, T/C is on record?
91.2

Lookup CCCS(=O)(=O)Nc1ccc(F)c(C(=O)c2c[nH]c3ncc(-c4ccc(Cl)cc4)cc23)c1F + CC(Nc1ccc2c(c1)OCCn1cc(N3C(=O)OCC3C(F)F)nc1-2)C(N)=O
97.8

Please answer likewise for CC(C)NCC(C(=O)N1CCN(c2ncnc3c2C(C)CC3O)CC1)c1ccc(Cl)cc1 (stereo not drawn) + COc1c(OCCCN2CCOCC2)ccc2c3n(c(=NC(=O)c4cnc(N)nc4)nc12)CCN3
101
